biological target: hPD1/hPD-L1 interaction (Homo sapiens (Human), UniProt Q9NZQ7); assay: HTRF assay of PD-1/PD-L1 interaction; type: binding; settings: HTRF
Sequence (Q9NZQ7 19-238): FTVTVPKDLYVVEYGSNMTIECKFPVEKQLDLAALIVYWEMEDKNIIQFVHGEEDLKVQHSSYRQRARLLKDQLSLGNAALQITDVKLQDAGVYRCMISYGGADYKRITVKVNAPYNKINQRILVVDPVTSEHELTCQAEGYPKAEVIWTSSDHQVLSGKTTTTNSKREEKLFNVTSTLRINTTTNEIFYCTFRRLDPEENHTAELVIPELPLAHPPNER
Observation type: pIC50
Please note pIC50 is a logarithmic value: minus log10 of concentration in mol/L. Answer with that number alone.

`CC(=O)NCCNc1ncnc(OCc2cccc(-c3ccccc3)c2C)n1` yielded pIC50 of 6.94
